# credit: paper PMC5540273

System: S6K1
Assay Context: concentration: 1 μM, replicates: in singlicate; n = 1;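 note: KINOMEscan kinase panel screen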
Reported %Inh is given for each of the following molecules.
Value Type: %Inh (%)

[[record]]
molecule = "Cn1ccc2ncnc(Oc3ccc(Nc4nc5ccccc5[nH]4)cc3)c21"
test_result = 0

[[record]]
molecule = "O=C1NC(=O)C(N2CCc3ccccc32)=C1c1ccccc1Cl [SB-373598]"
test_result = 0

[[record]]
molecule = "CCCc1ccc(S(=O)(=O)NC2CCN(c3ccnc(Nc4ccc(F)cc4)n3)C2)cc1 (centres unmarked) [GSK1379715]"
test_result = 0

[[record]]
molecule = "CCn1c(-c2cccnc2O)nc2cnccc21 [SB-736715]"
test_result = 5

[[record]]
molecule = "Fc1cccc(COc2nnc(-c3ccc4c(c3)CCO4)o2)c1"
test_result = 0


###

Reported %Inh is given for each of the following compounds.
System: ERBB2
Assay Context: concentration: 1 μM, replicates: in singlicate; n = 1
Value Type: %Inh (%)

[[record]]
compound = "Fc1cc(Cl)ccc1Nc1ccnc2cc(-c3ccc(CN4CCCCC4)o3)ccc12"
value_type = "%Inh"
test_result = 1

[[record]]
compound = "COc1cc2nccc(Nc3ccc(NC(=O)c4ccc(C)cc4)c(O)c3)c2cc1OC.Cl"
value_type = "%Inh"
test_result = 14

[[record]]
compound = "Fc1cccc(COc2nnc(-c3ccc4c(c3)CCO4)o2)c1"
value_type = "%Inh"
test_result = 3

[[record]]
compound = "CS(=O)(=O)c1ccc(-c2nc3n(c2-c2ccncc2)CCC3)cc1"
value_type = "%Inh"
test_result = 32

[[record]]
compound = "COc1cc(Nc2nccc(N3CCC(NC(=O)Nc4cc(C)ccc4C)C3)n2)cc(OC)c1OC (stereo not drawn)"
value_type = "%Inh"
test_result = 11

[[record]]
compound = "CCn1c(-c2cccnc2O)nc2cnccc21"
value_type = "%Inh"
test_result = 9

[[record]]
compound = "COc1ccccc1CNC(=O)c1cc(C(=O)c2ccccc2C)c[nH]1"
value_type = "%Inh"
test_result = 21

[[record]]
compound = "COc1ccc(C2=C(Nc3cccc(C(=O)O)c3)C(=O)NC2=O)cc1"
value_type = "%Inh"
test_result = 0

[[record]]
compound = "Cl.Oc1ccc(-c2nc(-c3ccccc3)[nH]c2-c2ccncc2)cc1"
value_type = "%Inh"
test_result = 57


###

Tested on: CDK8
Assay Context: concentration: 1 μM, replicates: in singlicate; n = 1
Reported %Inh is given for each of the following molecules.
Value Type: %Inh (%)

[[record]]
compound_smiles = "Nc1ncnc2[nH]c(-c3ccccc3)nc12"
unit_symbol = "%"
test_result = 0

[[record]]
compound_smiles = "Cc1cccc(-c2nc(Nc3ccc4[nH]ncc4c3)c3ccccc3n2)n1"
unit_symbol = "%"
test_result = 0

[[record]]
compound_smiles = "Cn1ccc2ncnc(Oc3ccc(Nc4nc5ccccc5[nH]4)cc3)c21"
unit_symbol = "%"
test_result = 6

[[record]]
compound_smiles = "Fc1cc(Cl)ccc1Nc1ccnc2cc(I)ccc12"
unit_symbol = "%"
test_result = 7

[[record]]
compound_smiles = "O=C(O)COc1ncnc2cc(-c3ccc4[nH]ncc4c3)sc12"
unit_symbol = "%"
test_result = 4

[[record]]
compound_smiles = "CCn1c(-c2cccnc2O)nc2cnccc21"
unit_symbol = "%"
test_result = 33

[[record]]
compound_smiles = "Nc1nc(-c2nccs2)c(-c2ccnc3ccccc23)s1"
unit_symbol = "%"
test_result = 14

[[record]]
compound_smiles = "Clc1cc(Cl)cc(Nc2ccnc(Nc3cc(Cl)cc(Cl)c3)n2)c1"
unit_symbol = "%"
test_result = 0

[[record]]
compound_smiles = "Cc1cccc(-c2nc(Nc3cccc(C(N)=O)c3)c3ccccc3n2)n1"
unit_symbol = "%"
test_result = 36

[[record]]
compound_smiles = "Cl.c1ccc(-c2n[nH]cc2-c2ccnc(-c3ccc(CN4CCOCC4)cc3)c2)nc1"
unit_symbol = "%"
test_result = 52

